test: NCI Yeast Anticancer Drug Screen. Data for the bub3 strain (AID 167); settings: S. cerevisiae bub3 mutant strain, at 50.0 µM, active compounds read high
This is part of a sample that, as a whole, favours compounds with a hit. Of some 79,000 tested, about 15% had one in any assay.
Response key: rule met means growth inhibition >= 60%; rule not met means growth inhibition < 60%.

Exam item: hey, is growth inhibition for this one >= 60%? S=C(Nc1ccc(Cl)c(Cl)c1)SC1CCCCC1
Marked response: rule met

Exam item: I'd appreciate it if you could say whether CCCCCCCCCCC(NC(C)=O)(C(=O)OCC)C(=O)OCC has growth inhibition at least equal to 60%.
Marked response: rule met

Exam item: Identify whether the reported growth inhibition of the following compound is 60% or greater: CC(C)c1cc2c(cc1O)C(O)C1(O)CCCC(C)(C)[C@H]1CC2 (stereo partly drawn)
Marked response: rule met

Exam item: # check: growth inhibition of COC(=O)/C=C1/OC(c2ccccc2)=CC1=O is greater than or equal to 60%
Marked response: rule met

Exam item: growth inhibition >= 60% for CC1(Cc2ccccc2)CCCC(C=O)C1=O.[Cu+2] (stereo not drawn) ?
Marked response: rule not met

Exam item: Given the entry CC1=CC(C)(C)Nc2cc(N)ccc21 , answer whether its growth inhibition meets or surpasses 60%.
Marked response: rule not met

* * *

assay: NCI Yeast Anticancer Drug Screen. Data for the cln2 rad14 strain (AID 165);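 note: 0% = growth equal to vehicle treated cultures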; conditions: S. cerevisiae cln2 rad14 strain, at 50.0 µM, active compounds read high
This is part of a sample that, as a whole, favours compounds with a hit. Of some 79,000 tested, about 15% had one in any assay.
Entries and their growth inhibition values follow.
Provide only the numeric value, understood in %.

Sample answers from the record:
CCc1ccc(C(=O)O)cc1    76.7
Cc1ccc(S(=O)(=O)OCC(C)(C)C)cc1    -29.6
CCCCCCCCCCCC(O)CN1CCOCC1 (stereo unspecified)    91.5
Cn1cnc([N+](=O)[O-])c1Sc1nnnn1-c1ccccc1    36.1
CC(=O)c1c2c(cc3c1CC1(C3)Cc3cc4c(c(C(=O)O)c3C1)CCC4)CCC2 (stereo unspecified)    84.2

Exam item: Could you share which growth inhibition value was measured for CC(=O)/C=N/Nc1ccccc1 ?
Marked response: -9.5

* * *

assay: NCI Yeast Anticancer Drug Screen. Data for the cln2 rad14 strain (AID 165);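 note: 0% = growth equal to vehicle treated cultures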; conditions: S. cerevisiae cln2 rad14 strain, at 5.0 µM (retest, dose inferred, filed as 0.5), active compounds read high
The panel holds about 79,000 compounds, 15% with a hit somewhere; the sample as a whole holds those more often. Activity calls are given as the source filed them. Cut-off read from the data, not from the text of the source: active = growth inhibition above about 70%; inactive = the rest.
In this section we review reported growth inhibition values for a set of compounds.

Cc1cccc(C)c1O    -9% (inactive)
CC/C(=C\c1cccc(OC)c1)c1ccncc1    14% (inactive)
CCOC(=O)C[n+]1c(C)sc2ccccc21    -7% (inactive)
CC/C(Cl)=N\OC(=O)Nc1ccc(F)c(Cl)c1    31% (inactive)
O=C(Nc1ccc(O)cc1O)c1ccccc1    7% (inactive)
CC(C)C(CC(C)(C)C)OC(=O)Nc1cccc2ccccc12 (centres undefined)    -17% (inactive)

Exam item: # growth inhibition lookup, item O=C(OCc1ccccc1)N(CCCCN(CCCNCc1ccccc1)C(=O)OCc1ccccc1)CCCNCc1ccccc1
Marked response: 3% (inactive)

Exam item: Consider the compound shown here: O=C1c2ccccc2C(=O)c2ncccc21 What is its recorded growth inhibition?
Marked response: -2% (inactive)

Exam item: Field request: growth inhibition | item: CC(=O)N1OC2(C)c3ccccc3C1(C)c1ccccc12
Marked response: 98% (active)

Exam item: Report growth inhibition for CCOC(=O)C1CC(C(=O)OCC)C(=O)C1=O (centres undefined) please.
Marked response: 28% (inactive)

Exam item: Need growth inhibition of CCCCN(CCCC)CCCC(O)c1c2ccc(Cl)cc2nc2ccc(OC)cc12 (centres undefined) , thanks.
Marked response: -3% (inactive)

Exam item: // growth inhibition lookup, key: C=CC1(c2ccc(OC)cc2)OCCCO1
Marked response: 27% (inactive)

Exam item: Entry under review: CCCCN(CCO)CCNc1ccc(C)c2sc3ccccc3c(=O)c12 . Reported growth inhibition?
Marked response: 17% (inactive)

* * *

experiment: NCI Yeast Anticancer Drug Screen. Data for the sgs1 mgt1 strain (AID 161);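 note: 0% = growth of cultures given vehicle only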; details: S. cerevisiae sgs1 mgt1 strain, at 50.0 µM (retest, dose inferred, filed as 5.0), active compounds read high
The panel holds about 79,000 compounds, 15% with a hit somewhere; the sample as a whole holds those more often.
Parameter threshold = 90%. Response is MET when growth inhibition meets or exceeds it, else NOT MET.

Exam item: Item CCCCC(CC)C(O)C(=O)O (centres undefined) with growth inhibition of 90% or above?
Marked response: NOT MET

Exam item: // inclusive: growth inhibition at least 90%? input: CCOC(=O)/C(=C\c1ccc(C)cc1)C(C)=O
Marked response: MET

Exam item: Item Clc1cccc2c(-c3ccccc3)c3cccc(Cl)c3cc12 with growth inhibition of 90% or above?
Marked response: NOT MET

* * *

experiment: NCI Yeast Anticancer Drug Screen. Data for the mlh1 rad18 strain (AID 175); conditions: S. cerevisiae mlh1 rad18 strain growth inhibition; at 5.0 µM (retest, dose inferred, filed as 0.5); active compounds read high
The panel holds about 79,000 compounds, 15% with a hit somewhere; the sample as a whole holds those more often.
measurement.name: growth inhibition (%)
Give the value in % but do not write % after it.

Consider the following illustrative entries.
CCCCCCCCN(CCCCCCCC)CC(O)c1cc(OCC)nc2ccccc12 (stereo not drawn)    9
CN(C)C=Nc1c2ccccc2nc2ccccc12    -8
S=c1sc2ccccc2n1C=Nc1ccccc1    -2
COc1ccc(OC)c(/C=C2/C(=O)ON=C2C)c1    8
CCc1ccc(C(=O)O)cc1    -5
O=C(c1ccccc1)C1(C(=O)c2ccccc2)/C(=N\O)C2CCC1C2 (stereo not drawn)    12
Cc1c2[nH]c3ccc(Br)cc3c2c(C)c2[nH]ccc(=O)c12    -11
CN1C(=O)c2cccc3cc([N+](=O)[O-])cc(c23)C1=O    15

Then this molecule:
Exam item: Can you look up the measured growth inhibition of CCOC(=O)/C(=C\c1cccc(OC)c1)C(C)=O for me?
Marked response: -16

* * *

test: NCI Yeast Anticancer Drug Screen. Data for the sgs1 mgt1 strain (AID 161);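 note: 0% = growth of cultures given vehicle only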; details: S. cerevisiae sgs1 mgt1 strain, at 50.0 µM (retest, dose inferred, filed as 5.0)
Compounds without any hit were thinned out: in the full panel of roughly 79,000, 15% have a hit. Activity calls are given as the source filed them. No stated cut-off is given here; in the data, active means growth inhibition above about 70%; inactive means the rest.
Your answer must be one of the following: Yes (active), No (inactive)

COc1ccccc1NC(=O)CC(=O)N1N=C(c2ccccc2)C(N=Nc2ccc(Cl)cc2)C1=O (stereo not given)    No
[O-]c1c2cc(-[n+]3c(-c4ccccc4)cc(-c4ccccc4)cc3-c3ccccc3)cc1CO[C@@H](c1ccccc1)[C@H](c1ccccc1)OCCOCCO[C@@H](c1ccccc1)[C@H](c1ccccc1)OC2    Yes
N#[N+]c1c([O-])ccc2nc3ccccc3nc12    No
COc1ccc2c(c1)O[C@H]1c3ccc(O)cc3OC[C@@H]21    No

Okay, next one:
Exam item: Which result was noted for this compound in the test: CCOc1ccccc1/C=N/Nc1nnc(N/N=C/c2ccccc2OCC)c2ccccc12
Marked response: No

* * *

experiment: NCI Yeast Anticancer Drug Screen. Data for the cln2 rad14 strain (AID 165);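 note: 0% = growth equal to vehicle treated cultures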; settings: S. cerevisiae cln2 rad14 strain, at 5.0 µM (retest, dose inferred, filed as 0.5)
Compounds without any hit were thinned out: in the full panel of roughly 79,000, 15% have a hit. Active and inactive are the calls of the source. Cut-off read from the data, not from the text of the source: active = growth inhibition above about 70%; inactive = the rest.
Select the matching outcome among active, inactive

C=C1CC(C)(C)C(c2ccccc2)OC1=O (stereo not drawn)    inactive
NC(CSC1(c2ccc(Cl)cc2)c2ccccc2-c2ccccc21)C(=O)O (stereo not drawn)    inactive
CC(NNC(=S)N1CCCC1)c1cc2ccccc2cn1 (stereo not drawn)    inactive
O=C(O)c1ccc2c(O)c3ccccc3c(O)c2c1    inactive
CCCCC(=O)N/N=C(\C)[C@]1(O)Cc2c(O)c3c(c(O)c2[C@@H](OC2CC(N)C(O)C(C)O2)C1)C(=O)c1c(OC)cccc1C3=O (stereo partly drawn)    inactive
CC(=O)NCC1OC2COC(c3ccccc3)OC2C(NC(=O)c2ccccc2)C1OC(=O)c1ccccc1 (stereo not drawn)    inactive

Exam item: Name the outcome recorded for Cc1cc(-c2ccc(O)c(C)c2)ccc1O in the assay.
Marked response: inactive

Exam item: Field: outcome | Entry: O=C(NC1CCN(Cc2ccccc2)CC1)c1ccccc1I
Marked response: active

Exam item: Recorded call for O=C1c2ccccc2C(=O)c2c(NCCNCCO)ccc(O)c21 ?
Marked response: inactive

Exam item: Just curious, what result did O=C(CCc1ccccc1)OCC1OC(OC(=O)CCc2ccccc2)C(OC(=O)CCc2ccccc2)C(OC(=O)CCc2ccccc2)C1OC(=O)CCc1ccccc1 (stereo not drawn) get here?
Marked response: inactive

Exam item: Which result was noted for this compound in the test: CC1CCCC(CCN(C)CCC2CCCCC2)CC1 (stereo not drawn)
Marked response: inactive

Exam item: Any idea what this test logged for COc1ccc(C(C)=O)c(OC(=O)c2ccccc2)c1OC(=O)c1ccccc1 ?
Marked response: inactive

Exam item: Would you mind telling me which call this test gave Cc1cc(Sc2ccccc2)c2c(C)ccc(C(C)C)cc1-2 ?
Marked response: inactive

Exam item: Which outcome was entered for the compound c1cnc2ccc3c4cccnc4ccc3c2c1 in this test?
Marked response: inactive

Exam item: Tell me the recorded outcome of this test for Cc1cc(NCCO)nc2c1ccc1ccccc12 .
Marked response: inactive

Exam item: What classification did O=C(OCc1ccccc1CN1CCOCC1)c1ccc(Br)cc1 end up with in this test?
Marked response: inactive

Exam item: Tell me the recorded outcome of this test for S=C1NCCNC(=S)SS1 .
Marked response: inactive

Exam item: Outcome? O=C(/C(Cl)=N/O)c1ccccc1
Marked response: inactive

Exam item: # fetch the recorded call for COC(=O)C1(C)CCCC2(C)C3CC(=O)C(C(C)C)=CC3(O)CCC12 (stereo not drawn) here
Marked response: inactive

Exam item: For Cc1nc(-c2ccc(N=Cc3ccc(N(CCOS(C)(=O)=O)CCOS(C)(=O)=O)cc3Cl)cc2)c(C)s1 , what call appears in the results of this test?
Marked response: inactive

Exam item: For CCCCOc1ccc(CC(O)CN2CCCCC2C)cc1 (stereo not drawn) , what call appears in the results of this test?
Marked response: inactive

Exam item: Write down the call the test reported for this compound. Item: COc1ccc(/C(=N/NC(N)=O)C(c2ccc(OC)cc2)C2C(=O)Oc3ccccc32)cc1 (stereo not drawn)
Marked response: inactive

Exam item: Any idea what this test logged for NCCSC1(O)C(=O)c2ccccc2C1=O ?
Marked response: inactive

Exam item: How did this test come out for O=C1COCC(=O)OCCOCCSCCOCCO1 ?
Marked response: inactive

Exam item: Record request — test call for CC(=O)OCc1cc(=O)n(C)c2c3c4c(cc12)c(C)cc(=O)n4CO3
Marked response: active

// data source = PubChem BioAssay (NCI)
